# Tested on: SNB-19 CNS
# EXPERIMENT SUMMARY: NCI-60 one-dose screen, 48 h
# PARTICULARS: 10 µM
This is part of a sample that, as a whole, favours compounds with a hit. Of some 83,000 tested, about 20% had one in any assay. Active and inactive are the calls of the source. The calls were made as follows: active = growth percent below 10; inactive = the rest.
Would you mind answering with one of these outcomes? active, inactive

Solved cases below.
Nc1nnc(-c2c[nH]c3ncccc23)c(-c2c[nH]c3ccc(Br)cc23)n1: inactive
Cc1ccc(-c2cc(-c3cc4ccccc4nc3Cl)[nH]c(=O)n2)cc1: active

Query: Test call for this compound, please: CN1CCc2c(sc3ncnc(N/N=C/c4ccc5ccccc5c4)c23)C1
Response: inactive

Query: So what was the verdict on O=S(=O)(c1ccc(Cl)cc1)c1nc(-c2ccccc2)oc1S(=O)(=O)c1ccc(Cl)cc1 in this test?
Response: inactive

Query: Outcome logged for Cc1ccc(C(=O)NNC(=O)CSc2nc3ccccc3c(=O)[nH]2)cc1 in this assay:
Response: inactive

Query: Called result for NC(=Nc1ccc(OCCCCCCCCn2ccnn2)cc1)c1ccccc1
Response: inactive

Query: Which outcome did this test record for the compound O=C(c1ccccc1)n1ccc(-c2cc3cc(Br)ccc3oc2=O)n1 ?
Response: inactive

Query: Fill in: this test's call for COc1ccc(/C=C/C(=O)c2ccc(NC(=O)CN3C(=O)NC(C)(c4ccccc4)C3=O)cc2)cc1 (stereo not given) is ___
Response: inactive

Query: Per the records of this test, what outcome belongs to O=C(Nc1cccc(C(F)(F)F)c1)c1cncc(C#Cc2cnc3ccc(N4CCOCC4)nn23)c1 ?
Response: active

Query: // return assay outcome for Cc1ccc(-c2nc(Nc3ccc(S(N)(=O)=O)cc3)c3ccccc3n2)cc1
Response: inactive

Query: Called result for COc1cccc(/C=N/NC(=O)c2ccc3nc(-c4ccc(Cl)cc4)[nH]c3c2)c1O
Response: active
